Assay: modulators of AGP1-GFP expression in yeast TOR pathway, primary screen, cell-based, multiplex flow cytometry, S. cerevisiae (AID 1887);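 further: AGP1-GFP fusion strain of S. cerevisiae within a five-strain barcoded multiplex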
Conditions: 3 h, at 10 µM, hits give high values
Results filed as inconclusive are left out.
Overview of reported GFP response, % of DMSO across a group of compounds:
Write the value in % as a bare number.

Worked set:
Clc1ccc(Cn2c(CN3CCCC3)nc3ccccc32)cc1 = 102
CCOC(=O)C(=O)Nc1ccc(Oc2ccccc2)cc1 = 97.8
COc1cc2c(cc1OC)C(c1cc3ccccc3oc1=O)=NC(C)(C)C2 = 100
Cc1ccc2c(c1)c1c3n2CCCNC3CCC1 (stereo unspecified) = 94
C/C(=N\N=C1\NC(=O)C(CC(=O)Nc2ccc(Cl)cc2)S1)c1ccco1 (stereo unspecified) = 99.1

Could you tell me which GFP response, % of DMSO is on file for CC(C)NCC(O)COc1ccc(CCOCC2CC2)cc1 (stereo unspecified) ?
108

Proceed to CCc1cc(=O)oc2cc(C)c(CN3CCCC(C)C3)c(O)c12 (stereo unspecified)
94.9

And the next one, `CC#C[C@]1(O)CC[C@H]2[C@@H]3CCC4=CC(=O)CCC4=C3[C@@H](c3ccc(N(C)C)cc3)C[C@@]21C` ?
102

Also `Nc1nc2ccc(OC(F)(F)F)cc2s1` ?
95.1

Query CCOC(=O)C1=C(N)Oc2c(oc(CO)cc2=O)C1c1ccc(F)c(F)c1 (stereo unspecified) next
97.3

Next entry: `NCCOc1ccccc1OCCN`
99.9

Also `COC(=O)C1=C(C)NC(C)=C(C(=O)OC)C1c1ccccc1[N+](=O)[O-]` ?
94.6

Same question for `Cc1ccc(-n2ncc3c(Nc4cccc(C(=O)O)c4)ncnc32)cc1` please.
93.9

Param item: O=C(Nc1cccc(Cl)c1)N1CCN2C(=O)c3ccccc3C12c1ccccc1 (stereo unspecified)
96.3
